# targetSystem: plasmin (pig) (Sus scrofa, UniProt P06867)
# Sequence (P06867 97-809): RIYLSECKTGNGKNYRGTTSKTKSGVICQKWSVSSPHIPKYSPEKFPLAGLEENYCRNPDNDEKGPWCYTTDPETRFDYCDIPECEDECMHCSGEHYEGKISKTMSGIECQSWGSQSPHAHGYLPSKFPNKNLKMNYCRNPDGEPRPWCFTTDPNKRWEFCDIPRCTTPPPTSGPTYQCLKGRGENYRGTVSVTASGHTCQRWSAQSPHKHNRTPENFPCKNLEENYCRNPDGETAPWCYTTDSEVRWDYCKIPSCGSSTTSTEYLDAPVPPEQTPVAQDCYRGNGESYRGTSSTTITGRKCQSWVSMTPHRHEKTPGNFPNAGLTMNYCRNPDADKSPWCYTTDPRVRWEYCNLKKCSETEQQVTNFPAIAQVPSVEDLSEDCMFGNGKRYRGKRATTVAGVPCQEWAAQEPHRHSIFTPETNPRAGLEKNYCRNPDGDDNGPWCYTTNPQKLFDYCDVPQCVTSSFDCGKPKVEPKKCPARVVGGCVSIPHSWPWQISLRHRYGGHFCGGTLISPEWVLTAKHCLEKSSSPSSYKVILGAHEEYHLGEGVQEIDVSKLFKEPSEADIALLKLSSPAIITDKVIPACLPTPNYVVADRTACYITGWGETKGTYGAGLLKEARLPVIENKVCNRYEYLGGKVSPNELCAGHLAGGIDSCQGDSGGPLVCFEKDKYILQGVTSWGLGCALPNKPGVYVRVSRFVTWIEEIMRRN
# measurementNotes: Km, Vmax and Vmax/Km of substrates for plasmin (pig)
# Format: biochemical, Porcine (pig)
# measurementConditions: TABLE 2, CHA substrates, plasmin (pig), 2,6-xylenol 615 nm
Provide the reported Vmax (× 10^-7) of each item.

// Vmax (× 10^-7) lookup, compound = CC(=O)NCCCC[C@@H](N)C(=O)N[C@@H](Cc1ccccc1)C(=O)N[C@@H](CCCCN)C(=O)Nc1ccc(O)c(C(=O)O)c1 [NPC-4, HD-Lys(AC)PheLysCHA.2HCl] , result: 10.940 × 10^-7

The measured Vmax (× 10^-7) associated with NCCCC[C@H](NC(=O)[C@H](Cc1ccccc1)NC(=O)[C@H](N)CCCCNC(=O)OCc1ccccc1)C(=O)Nc1ccc(O)c(C(=O)O)c1 [NPC-20] reads 40.725 × 10^-7

Recorded result, NCCCC[C@H](NC(=O)[C@H](Cc1ccccc1)NC(=O)[C@H](N)CCCCNC(=O)c1ccc2ccccc2c1)C(=O)Nc1ccc(O)c(C(=O)O)c1 [NPC-9, HD-Lys(NaC)PheLysCHA.2HCl] , Vmax (× 10^-7): 13.827 × 10^-7

---

Answer each item with its documented Selectivity PL, absorbance (O.D.) at 645 nm.
# targetSystem: Plasmin (PL) (Sus scrofa, UniProt P06867)
# Sequence (P06867 97-809): as above
# Assay type: biochemical, Pig
# measurementConditions: TABLE 4, CHA substrates; So = 0.54; pH 7.4; 37° C., 10 minutes; 0.32 CU/ml
Write your answer as a measured quantity: the number, then the unit.

Tested on Plasmin (PL) (Sus scrofa, UniProt P06867), the item CC(C)C[C@H](NC(=O)[C@H](N)C(C)C)C(=O)N[C@@H](CCCCN)C(=O)Nc1ccc(O)c(C(=O)O)c1 showed Selectivity PL, absorbance (O.D.) at 645 nm equal to 0.013 O.D.

CS(=O)(=O)NCCCC[C@@H](N)C(=O)N[C@@H](Cc1ccccc1)C(=O)N[C@@H](CCCCN)C(=O)Nc1ccc(O)c(C(=O)O)c1 on Plasmin (PL) (Sus scrofa, UniProt P06867) gives Selectivity PL, absorbance (O.D.) at 645 nm = 0.185 O.D.

# Selectivity PL, absorbance (O.D.) at 645 nm measured on Plasmin (PL) (Sus scrofa, UniProt P06867) for item NCCCC[C@H](NC(=O)[C@H](Cc1ccccc1)NC(=O)[C@H](N)CCCCNS(=O)(=O)c1cccc2ccccc12)C(=O)Nc1ccc(O)c(C(=O)O)c1 = 0.192 O.D.

---

# targetSystem: Factor-Xa (FXa) (Bos taurus)
# Sequence (P00743 41-180): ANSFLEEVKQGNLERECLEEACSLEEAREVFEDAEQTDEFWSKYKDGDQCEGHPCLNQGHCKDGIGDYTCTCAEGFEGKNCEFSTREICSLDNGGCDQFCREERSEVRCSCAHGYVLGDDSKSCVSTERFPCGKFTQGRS
# Sequence (P00743 234-492): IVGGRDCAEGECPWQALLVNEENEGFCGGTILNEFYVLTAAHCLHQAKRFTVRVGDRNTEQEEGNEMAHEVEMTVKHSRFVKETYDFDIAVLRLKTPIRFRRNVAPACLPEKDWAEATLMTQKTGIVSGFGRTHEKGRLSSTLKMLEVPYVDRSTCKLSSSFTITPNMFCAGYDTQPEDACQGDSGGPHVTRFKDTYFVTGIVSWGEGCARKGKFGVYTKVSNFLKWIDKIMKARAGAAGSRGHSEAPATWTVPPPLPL
# Assay type: biochemical, Cow
# measurementConditions: TABLE 3, PNA substrates; So = 0.54 mmole/l; pH 8.4; 37° C., 10 minutes; 0.4 U/ml
Provide the reported Selectivity FXa, absorbance (O.D.) at 405 nm of each item.
Respond numerically; units are O.D. and should not be typed.

The reported value for NCCCC[C@H](NC(=O)[C@H](Cc1ccccc1)NC(=O)[C@H](N)CCCCNS(=O)(=O)c1ccc2ccccc2c1)C(=O)Nc1ccc([N+](=O)[O-])cc1 in terms of Selectivity FXa, absorbance (O.D.) at 405 nm is 0.005

Per the records, this compound ( NCCCC[C@H](NC(=O)[C@H](Cc1ccccc1)NC(=O)[C@H](N)CCC(=O)OCCc1ccccc1)C(=O)Nc1ccc([N+](=O)[O-])cc1 ) has Selectivity FXa, absorbance (O.D.) at 405 nm equal to 0.005

What the record says about NCCCC[C@H](NC(=O)[C@H](Cc1ccccc1)NC(=O)[C@H](N)CCC(=O)NCCCCc1ccccc1)C(=O)Nc1ccc([N+](=O)[O-])cc1 : Selectivity FXa, absorbance (O.D.) at 405 nm is 0.003

// field: Selectivity FXa, absorbance (O.D.) at 405 nm; key: Cc1ccc(CCOC(=O)CC[C@@H](N)C(=O)N[C@@H](Cc2ccccc2)C(=O)N[C@@H](CCCCN)C(=O)Nc2ccc([N+](=O)[O-])cc2)cc1 ; value = 0.006

// field: Selectivity FXa, absorbance (O.D.) at 405 nm; key: NCCCC[C@H](NC(=O)[C@H](Cc1ccccc1)NC(=O)[C@H](N)CCC(=O)NCCCc1ccccc1)C(=O)Nc1ccc([N+](=O)[O-])cc1 ; value = 0.005

---

# targetSystem: plasmin (pig) (Sus scrofa)
# measurementNotes: Km, Vmax and Vmax/Km of substrates for plasmin (pig)
# Format: biochemical, Porcine (pig)
# measurementConditions: TABLE 2; V/Km of each sample divided by that of S2251 (so in the source)
I'd appreciate it if you could supply Relative ratio values for the items below.
Just the number, please, no unit attached.

I looked up Cc1ccc(S(=O)(=O)Oc2ccc(C[C@@H](N)C(=O)N[C@@H](CC(C)C)C(=O)N[C@@H](CCCCN)C(=O)Nc3ccc(O)c(C(=O)O)c3)cc2)cc1 [NPC-13, HD-Tyr(Tos)LeuLysCHA.2HCl] and its Relative ratio for plasmin (pig) (Sus scrofa) was 11.225

Item: NCCCC[C@H](NC(=O)[C@H](Cc1ccccc1)NC(=O)[C@H](N)CCCCNC(=O)c1ccc2ccccc2c1)C(=O)Nc1ccc(O)c(C(=O)O)c1 [NPC-9, HD-Lys(NaC)PheLysCHA.2HCl] | System: plasmin (pig) (Sus scrofa) | Relative ratio: 38.270

Lab entry: plasmin (pig) (Sus scrofa) assay, compound CC(C)C[C@H](NC(=O)[C@H](N)C(C)C)C(=O)N[C@@H](CCCCN)C(=O)Nc1ccc(O)c(C(=O)O)c1 , Relative ratio = 1.000

// Relative ratio (plasmin (pig) (Sus scrofa)) for NCCCC[C@H](NC(=O)[C@H](Cc1ccccc1)NC(=O)[C@H](N)CCCCNS(=O)(=O)c1ccc2ccccc2c1)C(=O)Nc1ccc(O)c(C(=O)O)c1 [NPC-8, HD-Lys(NaS)PheLysCHA.2HCl] = 154.748

Form: item CS(=O)(=O)NCCCC[C@@H](N)C(=O)N[C@@H](Cc1ccccc1)C(=O)N[C@@H](CCCCN)C(=O)Nc1ccc(O)c(C(=O)O)c1 ; test system plasmin (pig) (Sus scrofa); Relative ratio: 43.613

Lab note: compound CC(C)OC(=O)C[C@@H](N)C(=O)N[C@@H](Cc1ccccc1)C(=O)N[C@@H](CCCCN)C(=O)Nc1ccc(O)c(C(=O)O)c1 tested on plasmin (pig) (Sus scrofa); recorded Relative ratio was 17.414

Test item Cc1ccc(S(=O)(=O)NCCCC[C@H](N)C(=O)N[C@@H](Cc2ccccc2)C(=O)N[C@@H](CCCCN)C(=O)Nc2ccc(O)c(C(=O)O)c2)cc1 [NPC-5, HL-Lys(Tos)PheLysCHA.2HCl] ; plasmin (pig) (Sus scrofa); reported Relative ratio was 9.739

For the compound NCCCC[C@H](NC(=O)[C@H](Cc1ccccc1)NC(=O)[C@H](N)CCCCNS(=O)(=O)c1cccc2ccccc12)C(=O)Nc1ccc(O)c(C(=O)O)c1 , the measured Relative ratio on plasmin (pig) (Sus scrofa) was 23.874

Item CCCC(=O)NCCCC[C@@H](N)C(=O)N[C@@H](Cc1ccccc1)C(=O)N[C@@H](CCCCN)C(=O)Nc1ccc(O)c(C(=O)O)c1 was tested on plasmin (pig) (Sus scrofa); the reported Relative ratio is 31.117

plasmin (pig) (Sus scrofa) assay, compound NCCCC[C@H](NC(=O)[C@H](Cc1ccccc1)NC(=O)[C@H](N)CC(=O)OC1CCCCC1)C(=O)Nc1ccc(O)c(C(=O)O)c1 , recorded Relative ratio = 42.715

Test item Cc1ccc(S(=O)(=O)Oc2ccc(C[C@@H](N)C(=O)N[C@@H](Cc3ccccc3)C(=O)N[C@@H](CCCCN)C(=O)Nc3ccc(O)c(C(=O)O)c3)cc2)cc1 [NPC-11, HD-Tyr(Tos)PheLysCHA.2HCl] ; plasmin (pig) (Sus scrofa); reported Relative ratio was 99.532

---

# targetSystem: Factor-Xa (FXa) (Bos taurus)
# Type: biochemical, Cow
# measurementConditions: TABLE 4, CHA substrates; So = 0.54; pH 8.4; 37° C., 10 minutes; 0.4 U/ml
experimentalReadout: Selectivity FXa, absorbance (O.D.) at 645 nm
Please state the figure in O.D.; there is no need to write the unit.

Data point: CC(C)OC(=O)C[C@@H](N)C(=O)N[C@@H](Cc1ccccc1)C(=O)N[C@@H](CCCCN)C(=O)Nc1ccc(O)c(C(=O)O)c1 ; Selectivity FXa, absorbance (O.D.) at 645 nm = 0.003

// Selectivity FXa, absorbance (O.D.) at 645 nm value for NCCCC[C@H](NC(=O)[C@H](Cc1ccccc1)NC(=O)[C@H](N)CCC(=O)NCCc1ccccc1)C(=O)Nc1ccc(O)c(C(=O)O)c1 : 0.005

Value of measured Selectivity FXa, absorbance (O.D.) at 645 nm for the entry CC(=O)NCCCC[C@@H](N)C(=O)N[C@@H](Cc1ccccc1)C(=O)N[C@@H](CCCCN)C(=O)Nc1ccc(O)c(C(=O)O)c1 [NPC-4, HD-Lys(AC)PheLysCHA.2HCl] : 0.002

# Selectivity FXa, absorbance (O.D.) at 645 nm (compound: NCCCC[C@H](NC(=O)[C@H](Cc1ccccc1)NC(=O)[C@H](N)CCCCNS(=O)(=O)c1ccc2ccccc2c1)C(=O)Nc1ccc(O)c(C(=O)O)c1 [NPC-8, HD-Lys(NaS)PheLysCHA.2HCl] ) is 0.002

Field Selectivity FXa, absorbance (O.D.) at 645 nm (entry NCCCC[C@H](NC(=O)[C@H](Cc1ccccc1)NC(=O)[C@H](N)CC(=O)OC1CCCCC1)C(=O)Nc1ccc(O)c(C(=O)O)c1 ) reads 0.015

// NCCCC[C@@H](N)C(=O)N[C@@H](Cc1ccccc1)C(=O)N[C@@H](CCCCN)C(=O)Nc1ccc(O)c(C(=O)O)c1 : Selectivity FXa, absorbance (O.D.) at 645 nm value = 0.002

Measured Selectivity FXa, absorbance (O.D.) at 645 nm, NCCCC[C@H](NC(=O)[C@H](Cc1ccccc1)NC(=O)[C@H](N)CCCCNS(=O)(=O)c1cccc2ccccc12)C(=O)Nc1ccc(O)c(C(=O)O)c1 : 0

Lab note: Cc1ccc(S(=O)(=O)NCCCC[C@@H](N)C(=O)N[C@@H](CC(C)C)C(=O)N[C@@H](CCCCN)C(=O)Nc2ccc(O)c(C(=O)O)c2)cc1 gave Selectivity FXa, absorbance (O.D.) at 645 nm of 0.002

Quick note, Selectivity FXa, absorbance (O.D.) at 645 nm for Cc1ccc(C(=O)NCCCC[C@@H](N)C(=O)N[C@@H](Cc2ccccc2)C(=O)N[C@@H](CCCCN)C(=O)Nc2ccc(O)c(C(=O)O)c2)cc1 [NPC-6, HD-Lys(Toc)PheLysCHA.2HCl] landed at 0.001

The compound NCCCC[C@H](NC(=O)[C@H](Cc1ccccc1)NC(=O)[C@H](N)CCCCNC(=O)c1ccccc1)C(=O)Nc1ccc(O)c(C(=O)O)c1 showed Selectivity FXa, absorbance (O.D.) at 645 nm equal to 0.002

For record CC(C)C[C@H](NC(=O)[C@H](N)C(C)C)C(=O)N[C@@H](CCCCN)C(=O)Nc1ccc(O)c(C(=O)O)c1 the listed Selectivity FXa, absorbance (O.D.) at 645 nm is 0.002

Quick note, Selectivity FXa, absorbance (O.D.) at 645 nm for NCCCC[C@H](NC(=O)[C@H](Cc1ccccc1)NC(=O)[C@H](N)CCCCNC(=O)OCc1ccccc1)C(=O)Nc1ccc(O)c(C(=O)O)c1 landed at 0.006
